Source of measurements: ChEMBL document CHEMBL3885861

Consider the following compounds; for each one, report its Eos.
Organism: Rattus norvegicus
Assay: Open TG-GATES - Regimen: Single
Assay type: toxicity, organism-based, Sprague-Dawley
Parameters: regimen Single, gender Male, age 6 weeks
Details: in vivo, po, 0 mg/kg, 6 h, tissue Blood, route gavage, dose level Control
Numbers only, in %.

> print(dat)
                                   compound  endpoint.value
1  O=C(O)c1cn(C2CC2)c2cc(N3CCNCC3)c(F)cc2c1=O             0.6
2          CCc1cc(C(N)=S)ccn1 [ETHIONAMIDE]               1

Inquiry: I am curious: what Eos value has been reported for CSc1ccc2c(c1)N(CCC1CCCCN1C)c1ccccc1S2 (stereo not drawn) ?
Reply text: 1

###

Field: RALB. Provide a value for each of the compounds that follow.
Species: Rattus norvegicus
Assay: Open TG-GATES - Regimen: Single
Type: toxicity, organism-based, Sprague-Dawley
Set-up: regimen Single, gender Male, age 6 weeks
Details: in vivo, po, 1000 mg/kg, 3 h, tissue Plasma, route gavage, dose level High
Answers are plain numbers, in g/dL.

Below are worked cases with known answers.
> print(dat)
                                   compound  units.label  endpoint.value
1          CCc1cc(C(N)=S)ccn1 [ETHIONAMIDE]         g/dL             3.7
2          C[C@H](CS)C(=O)N1CCC[C@H]1C(=O)O         g/dL             3.5
3  O=C(O)c1cn(C2CC2)c2cc(N3CCNCC3)c(F)cc2c1=O         g/dL             3.8
4                  Clc1ccccc1CN1CCc2sccc2C1         g/dL             3.3

Inquiry: Which RALB reading was recorded for the compound O=C(O)c1cc(/N=N/c2ccc(S(=O)(=O)Nc3ccccn3)cc2)ccc1O ?
Reply text: 3.4

###

Organism: Rattus norvegicus
Experiment: Open TG-GATES - Regimen: Single
Type: toxicity, organism-based, Sprague-Dawley
Design: regimen Single, gender Male, age 6 weeks
Conditions: in vivo, po, 100 mg/kg, 3 h, tissue Blood, route gavage, dose level Low
Provide the recorded Neu for the entries that follow.
One number for each entry, in %.

Examples with answers:
> print(dat)
                                   molecule  measurement.name  endpoint.value
1  C[C@H](CS)C(=O)N1CCC[C@H]1C(=O)O [CAPTOPRIL]               Neu            12.2
2          CCc1cc(C(N)=S)ccn1 [ETHIONAMIDE]               Neu            17.4
3  O=C(O)c1cc(/N=N/c2ccc(S(=O)(=O)Nc3ccccn3)cc2)ccc1O [SULFASALAZINE]               Neu            18.6
4  O=C(O)c1cn(C2CC2)c2cc(N3CCNCC3)c(F)cc2c1=O [CIPROFLOXACIN]               Neu            12.8

Here is the next item to consider.
Inquiry: Please give the measured Neu for this molecule: Clc1ccccc1CN1CCc2sccc2C1 [TICLOPIDINE]
Reply text: 16.6

###

Organism: Rattus norvegicus
Experiment: Open TG-GATES - Regimen: Single
Assay type: toxicity, organism-based, Sprague-Dawley
Parameters: regimen Single, gender Male, age 6 weeks
Settings: in vivo, po, 0 mg/kg, 24 h, tissue Liver, route gavage, dose level Control
Please go through the items and note down their LIVER.
One number for each entry, in g.

Known results for compounds:
> print(dat)
                                   compound  units.label  endpoint.value
1          C[C@H](CS)C(=O)N1CCC[C@H]1C(=O)O            g            11.7
2                  Clc1ccccc1CN1CCc2sccc2C1            g            10.1
3  CSc1ccc2c(c1)N(CCC1CCCCN1C)c1ccccc1S2 (configuration not stated)            g            11.4
4            CN(C)CCC=C1c2ccccc2CCc2ccccc21            g             9.6
5  O=C(O)c1cc(/N=N/c2ccc(S(=O)(=O)Nc3ccccn3)cc2)ccc1O            g            10.8

For every record below, what is its LIVER?
1. COc1cc2c(c3oc(=O)c4c(c13)CCC4=O)[C@@H]1C=CO[C@@H]1O2
2. NC(=O)N/N=C/c1ccc([N+](=O)[O-])o1

Reply text:
1: 10.9; 2: 9

Give measured LIVER for every item shown.
1. O=C(O)c1cn(C2CC2)c2cc(N3CCNCC3)c(F)cc2c1=O
2. Cn1c(=O)c2[nH]cnc2n(C)c1=O.O
3. CCc1cc(C(N)=S)ccn1 [ETHIONAMIDE]
4. NC(=O)N1c2ccccc2C=Cc2ccccc21 [CARBAMAZEPINE]

Reply text:
[9.8, 10.4, 11.8, 10.4]

Inquiry: Would you mind telling me what LIVER value was observed for COc1ccc(Cc2nccc3cc(OC)c(OC)cc23)cc1OC ?
Reply text: 11.3

###

Give TC for every item shown.
Species: Rattus norvegicus
Assay: Open TG-GATES - Regimen: Single
Type: toxicity, organism-based, Sprague-Dawley
Design: regimen Single, gender Male, age 6 weeks
Conditions: in vivo, po, 0 mg/kg, 3 h, tissue Plasma, route gavage, dose level Control
Give bare numbers, in mg/dL.

> print(dat)
                                   compound  endpoint.value
1  CN(C)CCC=C1c2ccccc2CCc2ccccc21 [AMITRIPTYLINE]            67.6
2          CCc1cc(C(N)=S)ccn1 [ETHIONAMIDE]              82

For every item in the list below, what is its measured TC?
1. CSc1ccc2c(c1)N(CCC1CCCCN1C)c1ccccc1S2 (stereo unspecified) [THIORIDAZINE]
2. NC(=O)N/N=C/c1ccc([N+](=O)[O-])o1 [NITROFURAZONE]

Reply text:
72.2
80.4

For each of the items listed, what is its TC?
1. Cn1c(=O)c2[nH]cnc2n(C)c1=O.O [THEOPHYLLINE]
2. O=C(O)c1cc(/N=N/c2ccc(S(=O)(=O)Nc3ccccn3)cc2)ccc1O [SULFASALAZINE]
3. O=C(O)c1cn(C2CC2)c2cc(N3CCNCC3)c(F)cc2c1=O [CIPROFLOXACIN]
4. COc1ccc(Cc2nccc3cc(OC)c(OC)cc23)cc1OC [PAPAVERINE]
5. C[C@H](CS)C(=O)N1CCC[C@H]1C(=O)O [CAPTOPRIL]
6. CC(=O)Oc1ccccc1C(=O)O [ASPIRIN]
7. Clc1ccccc1CN1CCc2sccc2C1 [TICLOPIDINE]

Reply text:
[77.4, 78, 73.6, 82.6, 70.8, 77, 79.2]

###

Species: Rattus norvegicus
Test: Open TG-GATES - Regimen: Daily Repeat
Assay type: toxicity, organism-based, Sprague-Dawley
Parameters: regimen Daily Repeat, gender Male, age 6 weeks
Settings: in vivo, po, 0 mg/kg, 72 h, tissue Plasma, route gavage, dose level Control, time 3 day
measurement-name: TBIL

Quick one: give me TBIL for each item below, same order please.
1. NC(=O)N1c2ccccc2C=Cc2ccccc21 [CARBAMAZEPINE]
2. O=C(O)c1cn(C2CC2)c2cc(N3CCNCC3)c(F)cc2c1=O

Reply text:
1. 0.1 mg/dL
2. 0.3 mg/dL

List the reported TBIL of each compound below.
1. Clc1ccccc1CN1CCc2sccc2C1
2. CC(=O)Oc1ccccc1C(=O)O
3. COc1ccc2c(c1)c(CC(=O)O)c(C)n2C(=O)c1ccc(Cl)cc1
4. C[C@H](CS)C(=O)N1CCC[C@H]1C(=O)O
5. CO[C@H]1/C=C/O[C@@]2(C)Oc3c(C)c(O)c4c(O)c(c(/C=N/N5CCN(C)CC5)c(O)c4c3C2=O)NC(=O)/C(C)=C\C=C\[C@H](C)[C@H](O)[C@@H](C)[C@@H](O)[C@@H](C)[C@H](OC(C)=O)[C@@H]1C
6. NC(=O)N/N=C/c1ccc([N+](=O)[O-])o1

Reply text:
1: 0.1 mg/dL; 2: 0.1 mg/dL; 3: 0.4 mg/dL; 4: 0.4 mg/dL; 5: 0.3 mg/dL; 6: 0.046 mg/dL

State recorded TBIL for all listed compounds.
1. CCc1cc(C(N)=S)ccn1 [ETHIONAMIDE]
2. CCCC(CCC)C(=O)O

Reply text:
1. 0.3 mg/dL
2. 0.1 mg/dL
